Target: human plasma kallikrein (Homo sapiens (Human), UniProt P03952)
Sequence (P03952 391-638): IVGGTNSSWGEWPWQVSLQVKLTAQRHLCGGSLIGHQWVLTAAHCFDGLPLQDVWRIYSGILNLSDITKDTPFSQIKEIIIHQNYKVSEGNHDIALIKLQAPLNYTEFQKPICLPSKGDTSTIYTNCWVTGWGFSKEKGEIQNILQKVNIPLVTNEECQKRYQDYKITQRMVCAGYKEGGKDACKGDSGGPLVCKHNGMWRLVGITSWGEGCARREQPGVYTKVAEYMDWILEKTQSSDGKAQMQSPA
Sequence (P03952 20-390 partner): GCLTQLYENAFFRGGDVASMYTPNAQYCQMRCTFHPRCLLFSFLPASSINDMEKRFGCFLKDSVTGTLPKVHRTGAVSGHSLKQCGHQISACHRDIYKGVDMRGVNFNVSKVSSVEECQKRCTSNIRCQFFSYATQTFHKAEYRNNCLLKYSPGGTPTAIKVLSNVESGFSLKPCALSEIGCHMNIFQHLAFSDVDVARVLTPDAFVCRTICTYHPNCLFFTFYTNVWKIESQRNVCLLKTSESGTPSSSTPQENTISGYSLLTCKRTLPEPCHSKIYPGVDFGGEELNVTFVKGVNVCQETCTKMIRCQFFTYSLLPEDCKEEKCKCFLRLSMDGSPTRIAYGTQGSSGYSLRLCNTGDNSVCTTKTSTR
Assay: Plasma Kallikrein Activity Assay (chromogenic substrate S2302)
Conditions: 2 nM kallikrein, 80 μM S2302, 30° C., pH 7.8; Cheng-Prusoff
pKi: −log10 of the molar value.
Hi there, I'd appreciate the recorded pKi for every entry that follows.

Ask: Please list pKi recorded for the compound O=C(Nc1cc(C(NCC2CC2)c2ccccc2)ccc1F)[C@H]1C[C@@H](O)CN1C(=O)Nc1ccc(Cl)cc1 (stereo partly drawn) [Compound 1p]
Reply: < 7.00

Ask: Answer with the recorded pKi of CO[C@@H]1C[C@H](C(=O)Nc2cccc(C(N)(CCC3CC3)c3ccncc3)c2)N(C(=O)Nc2ccc(Cl)cn2)C1 (stereo partly drawn) [Compound 75e] only.
Reply: > 7.30

Ask: Consider the compound N#Cc1cccc(C(N)(CCC2CC2)c2ccc(F)c(NC(=O)[C@H]3C[C@](O)(c4ccccc4)CN3C(=O)Nc3ccc(Cl)cc3)c2)c1 (stereo partly drawn) [Compound 30a] and give its recorded pKi.
Reply: > 7.30

Ask: Please give measured pKi of the following entry: N#Cc1cccc(C(N)(CCC2CC2)c2ccc(F)c(NC(=O)[C@H]3C[C@@H](N)CN3C(=O)Nc3ccc(Cl)cc3)c2)c1 (stereo partly drawn) [Compound 19c]
Reply: < 7.00

Ask: Note down pKi recorded for CO[C@]1(c2ccccc2)C[C@H](C(=O)Nc2cc(C(N)(CCC3CC3)c3ccncc3)ccc2F)N(C(=O)Nc2ccc(Cl)cn2)C1 (stereo partly drawn) [Compound 45c]
Reply: < 7.00

Ask: Specify measured pKi for CC(=O)O[C@@H]1C[C@H](C(=O)Nc2cc(C(N)(CCC3CC3)c3cccc(C#N)c3)ccc2F)N(C(=O)Nc2ccc(Cl)cn2)C1 (stereo partly drawn) [Compound 14g] .
Reply: < 7.00

====

Target: human plasma kallikrein (Homo sapiens (Human))
Assay: Plasma Kallikrein Activity Assay (chromogenic substrate S2302)
Conditions: 2 nM kallikrein, 80 μM S2302, 30° C., pH 7.8; Cheng-Prusoff
MEASURE: Ki

Ask: Fill: Ki (human plasma kallikrein (Homo sapiens (Human))) for this compound CO[C@@H]1C[C@@H](C(=O)Nc2cc(C(CCC3CC3)(N[S@+]([O-])C(C)(C)C)c3cccc(C#N)c3)ccc2F)N(C(=O)N(C)c2ccc(Cl)cc2)C1 (stereo partly drawn)
Reply: > 100 nM

Ask: State, for human plasma kallikrein (Homo sapiens (Human)), measured Ki of the compound listed here: CO[C@@H]1C[C@H](C(=O)Nc2cc(C(CCC3CC3)n3ccccc3=O)ccc2F)N(C(=O)Nc2ccc(Cl)cn2)C1 (stereo partly drawn) [Compound 43m]
Reply: 50 to 100 nM

Ask: System human plasma kallikrein (Homo sapiens (Human)). Read-out Ki. Item NC(CCC1CC1)(c1ccncc1)c1ccc(F)c(NC(=O)[C@H]2C[C@](O)(C(F)(F)F)CN2C(=O)Nc2ccc(Cl)cn2)c1 (stereo partly drawn) [Compound 54g] . Report value.
Reply: < 50 nM

Ask: Report Ki on human plasma kallikrein (Homo sapiens (Human)) for this entry: CO[C@@H]1C[C@H](C(=O)Nc2cc(C(N)(CCC3CC3)c3ccncc3)ccc2F)N(C(=O)Nc2ccc(Cl)cn2)C1 (stereo partly drawn) [Compound 70c]
Reply: < 50 nM

Ask: Report value: Ki, system: human plasma kallikrein (Homo sapiens (Human)), compound: CC(C)(C)[S@@+]([O-])NC(CCC1CC1)(c1cccc(C#N)c1)c1ccc(F)c(NC(=O)[C@@H]2CCCN2C(=O)Nc2ccc(Cl)cc2)c1 (stereo partly drawn)
Reply: > 100 nM

Ask: Report its Ki with human plasma kallikrein (Homo sapiens (Human)) as the test system: CC(C)(C)[S@@+]([O-])NC(CCC1CC1)(c1cccc(C#N)c1)c1ccc(F)c(NC(=O)[C@H]2CCCN2C(=O)Nc2ccc(Cl)cc2)c1 (stereo partly drawn)
Reply: > 100 nM

Ask: Give reported Ki for CCNC(CCC1CC1)(c1ccnc(C)c1)c1ccc(F)c(NC(=O)[C@H]2C[C@@H](OC)CN2C(=O)Nc2ccc(Cl)cn2)c1 (stereo partly drawn) [Compound 78a] (human plasma kallikrein (Homo sapiens (Human)))
Reply: < 50 nM

Ask: Name the recorded Ki of CO[C@@H]1C[C@H](C(=O)Nc2cc(C(N)(CCC3CC3)c3ccccn3)ccc2F)N(C(=O)Nc2ccc(Cl)cn2)C1 (stereo partly drawn) [Compound 37d] , assay system human plasma kallikrein (Homo sapiens (Human)).
Reply: < 50 nM

Ask: Provide Ki, system human plasma kallikrein (Homo sapiens (Human)), entry CC(C)(C)[S@@+]([O-])NC(CCC1CC1)(c1cccc(C#N)c1)c1ccc(F)c(NC(=O)[C@@H]2C[C@H](O)CN2C(=O)Nc2ccc(Cl)cc2)c1 (stereo partly drawn) [Compound 10b]
Reply: > 100 nM

Ask: Identify measured Ki obtained with human plasma kallikrein (Homo sapiens (Human)) for CCO[C@@H]1C[C@H](C(=O)Nc2cc(C(CCC3CC3)(NC(C)=O)c3ccncc3)ccc2F)N(C(=O)Nc2ccc(Cl)cn2)C1 (stereo partly drawn) [Compound 56a] .
Reply: < 50 nM

Ask: Give reported Ki for CO[C@@H]1C[C@H](C(=O)Nc2cc(C(CCC3CC3)(NC(C)=O)c3ccncc3)ccc2F)N(C(=O)Nc2ccc(Cl)cn2)C1 (stereo partly drawn) [Compound 73a] (human plasma kallikrein (Homo sapiens (Human)))
Reply: < 50 nM

Ask: Write Ki of CO[C@@H]1C[C@H](C(=O)Nc2cc(C(CCC3CC3)N3CCCCC3=O)ccc2F)N(C(=O)Nc2ccc(Cl)cn2)C1 (stereo partly drawn) [Compound 44e] ; system used: human plasma kallikrein (Homo sapiens (Human))
Reply: > 100 nM

====

Biological target: human plasma kallikrein (Homo sapiens (Human))
Assay: Plasma Kallikrein Activity Assay (chromogenic substrate S2302)
Conditions: 2 nM kallikrein, 80 μM S2302, 30° C., pH 7.8; Cheng-Prusoff
MEASURE: Ki

Ask: Could you please provide reported Ki for CO[C@@H]1C[C@H](C(=O)Nc2cc(C(N)(CCC3CC3)c3ccccn3)ccc2F)N(C(=O)Nc2ccc(Cl)cn2)C1 (stereo partly shown) [Compound 36d] ? Thanks!
Reply: > 100 nM

Ask: Check the records and state Ki for CO[C@@H]1C[C@H](C(=O)Nc2cc(C(N)(CCC3CC3)c3ccccn3)ccc2F)N(C(=O)Nc2ccc(Cl)cc2)C1 (stereo partly shown) [Compound 65b]
Reply: < 50 nM

Ask: Input CO[C@@H]1C[C@H](C(=O)Nc2cc(C(CCC3CC3)n3ccccc3=O)ccc2F)N(C(=O)Nc2ccc(Cl)cn2)C1 (stereo partly shown) [Compound 42l] , output reported Ki.
Reply: < 50 nM

Ask: Answer with the recorded Ki for the compound listed here: CO[C@@H]1C[C@H](C(=O)Nc2cc(C(N)(CCC3CC3)c3cccc(C#N)c3)ccc2F)N(C(=O)Nc2ccc(C#N)cc2)C1 (stereo partly shown) [Compound 15f]
Reply: > 100 nM

Ask: Fill in Ki for record N#Cc1cccc(C(CCC2CC2)(NC(=O)Nc2ccc(Cl)cc2)c2ccc(F)c(NC(=O)[C@H]3C[C@](O)(c4ccccc4)CN3C(=O)Nc3ccc(Cl)cc3)c2)c1 (stereo partly shown) [Compound 30b]
Reply: 50 to 100 nM

Ask: Please indicate Ki recorded for CO[C@@H]1C[C@H](C(=O)Nc2cc(C(N)(CCC3CC3)c3cccc(C#N)c3)ccc2F)N(C(=O)Nc2ccc(Cl)cc2)C1 (stereo partly shown) [Compound 17b]
Reply: 50 to 100 nM

Ask: Quote Ki reported for N#Cc1cccc(C(N)(CCC2CC2)c2ccc(F)c(NC(=O)[C@H]3CCCN3C(=O)Nc3ccc(Cl)cn3)c2)c1 (stereo partly shown) [Compound 13e] please.
Reply: > 100 nM

Ask: Note down Ki recorded for C[C@@H]1C[C@H](C(=O)Nc2cc(C(N)(CCC3CC3)c3ccncc3)ccc2F)N(C(=O)Nc2ccc(Cl)cn2)C1 (stereo partly shown) [Compound 49d]
Reply: 50 to 100 nM

Ask: Tell me Ki reported for CC(C)(C)[S@@+]([O-])NC(CCC1CC1)(c1cccc(C#N)c1)c1ccc(F)c(NC(=O)[C@H]2C[C@H](N=[N+]=[N-])CN2C(=O)Nc2ccc(Cl)cc2)c1 (stereo partly shown) [Compound 33b]
Reply: > 100 nM

Ask: Fill in reported Ki for this entry: NC(CCC1CC1)(c1ccncc1)c1ccc(F)c(NC(=O)[C@H]2C[C@](O)(C3CC3)CN2C(=O)Nc2ccc(Cl)cn2)c1 (stereo partly shown) [Compound 59d]
Reply: < 50 nM

Ask: Answer with reported Ki of CO[C@@H]1C[C@H](C(=O)Nc2cc(C(CCC3CC3)(N[S@+]([O-])C(C)(C)C)c3ccccc3)ccc2F)N(C(=O)Nc2ccc(Cl)cn2)C1 (stereo partly shown) [Compound 66c]
Reply: > 100 nM

Ask: Complete the entry with Ki for CO[C@]1(c2ccccc2)C[C@H](C(=O)Nc2cc(C(CCC3CC3)(N[S@@+]([O-])C(C)(C)C)c3ccccn3)ccc2F)N(C(=O)OC(C)(C)C)C1 (stereo partly shown) [Compound 34b]
Reply: > 100 nM

Ask: Write down Ki measured for item NC(CCC1CC1)(c1ccncc1)c1ccc(F)c(NC(=O)[C@H]2C[C@@H](O)CN2C(=O)Nc2ccc(Cl)cn2)c1 (stereo partly shown) [Compound 72c]
Reply: < 50 nM

Ask: Please look at this compound and report its Ki: CO[C@@H]1C[C@H](C(=O)Nc2cc(C(N)(CCC3CC3)c3ccncc3)ccc2F)N(C(=O)c2cccc(C#N)c2)C1 (stereo partly shown) [Compound 86a]
Reply: > 100 nM

Ask: Identify measured Ki associated with CCO[C@@H]1C[C@H](C(=O)Nc2cc(C(N)(CCC3CC3)c3ccncc3)ccc2F)N(C(=O)Nc2ccc(Cl)cn2)C1 (stereo partly shown) [Compound 51b]
Reply: < 50 nM

Ask: Please indicate Ki recorded for CO[C@@H]1C[C@H](C(=O)Nc2cc(C(CCC3CC3)(NS(C)(=O)=O)c3ccncc3)ccc2F)N(C(=O)Nc2ccc(Cl)cn2)C1 (stereo partly shown) [Compound 74a]
Reply: < 50 nM

Ask: Input NC(CCC1CC1)(c1ccc(F)c(NC(=O)[C@H]2C[C@](O)(c3ccccc3)CN2C(=O)Nc2ccc(Cl)cn2)c1)c1ccccn1 (stereo partly shown) [Compound 32a] , output reported Ki.
Reply: < 50 nM

Ask: Output Ki of CO[C@@H]1C[C@H](C(=O)Nc2cc(C(N)(CCC3CC3)c3ccncc3)ccc2F)N(C(=O)c2ccc(F)c(N)c2)C1 (stereo partly shown) [Compound 85a]
Reply: > 100 nM

Ask: Tell me measured Ki for Cc1ccc(NC(=O)N2C[C@H](O)C[C@@H]2C(=O)Nc2cc(C(N)(CCC3CC3)c3cccc(C#N)c3)ccc2F)cc1 (stereo partly shown) [Compound 22b] please.
Reply: > 100 nM

Ask: Give the value of Ki reported for the following: COc1ccc(NC(=O)N2C[C@H](OC)C[C@@H]2C(=O)Nc2cc(C(N)(CCC3CC3)c3cccc(C#N)c3)ccc2F)cc1 (stereo partly shown) [Compound 16b]
Reply: > 100 nM

Ask: Indicate the recorded Ki value for this compound: "O=C(Nc1ccccc1F)[C@H]1C[C@@H](O)CN1C(=O)Nc1ccc(Cl)cc1"
Reply: > 100 nM

Ask: Return Ki (reported value) for this compound: CCC1(O)C[C@H](C(=O)Nc2cc(C(N)(CCC3CC3)c3ccccn3)ccc2F)N(C(=O)Nc2ccc(Cl)cn2)C1 (stereo partly shown) [Compound 38d]
Reply: < 50 nM

Ask: Report Ki, nothing else, for this compound: CO[C@@H]1C[C@H](C(=O)Nc2cc(C(N)(CCC3CC3)c3ccncc3)ccc2F)N(C(=O)c2ccc3cc[nH]c3c2)C1 (stereo partly shown) [Compound 82a]
Reply: > 100 nM

Ask: Look up and report measured Ki for this entry: CO[C@@H]1C[C@H](C(=O)Nc2cc(C(CCC3CC3)(N[S@+]([O-])C(C)(C)C)c3cccc(C#N)c3)ccc2F)N(C(=O)Nc2ccc(Cl)cn2)C1 (stereo partly shown) [Compound 18a]
Reply: < 50 nM

Ask: For CO[C@@H]1C[C@H](C(=O)Nc2cc([C@](CCC3CC3)(N[S@+]([O-])C(C)(C)C)c3ccncc3)ccc2F)N(S(=O)(=O)c2ccc3cc(Cl)ccc3c2)C1 [Compound 87b] , write its Ki.
Reply: > 100 nM
